# Tested on: PSMA-positive LNCaP cells
# Experiment notes: Surface binding and internalization of 68Ga-labeled compounds
# Format: cell-based, human
# Study conditions: 30 nM, 45 min, 37 °C, unblocked
Non-standard residues stand in square brackets, D forms with d. Residues, ends and D or L forms follow the SMILES beside them. *: point of attachment. DOTA = O=C(O)CN1CCN(CC(=O)O)CCN(CC(=O)*)CCN(CC(=O)O)CC1; EuK = O=C(O)CC[C@H](NC(=O)N[C@@H](CCCCN*)C(=O)O)C(=O)O; 2Nal = N[C@@H](Cc1ccc2ccccc2c1)C(=O)O; Trx = NC[C@H]1CC[C@H](C(=O)O)CC1
Kindly supply the reported Internalization values for the records listed here.

Consider the reported Internalization for these compounds:
{"Compound": "O=C(O)CC[C@H](NC(=O)N[C@@H](CCCCNC(=O)[C@H](Cc1ccc2ccccc2c1)NC(=O)[C@H]1CC[C@H](CNC(=O)[C@H](Cc2c[nH]cn2)NC(=O)[C@H](CCC(=O)O)NC(=O)[C@H](Cc2c[nH]cn2)NC(=O)[C@H](CCC(=O)O)NC(=O)[C@H](Cc2c[nH]cn2)NC(=O)[C@H](CCC(=O)O)NC(=O)[C@H](Cc2c[nH]cn2)NC(=O)[C@H](CCC(=O)O)NC(=O)CN2CCN(CC(=O)O)CCN(CC(=O)O)CCN(CC(=O)O)CC2)CC1)C(=O)O)C(=O)O [PS5, EuK-NaI-ChX-(HE)4-DOTA] ({DOTA}-EHEHEHEH[Trx][2Nal]-EuK)", "Readout": "Internalization", "Result": "0.67 ± 0.06 %Binding / %Internalization"}
{"Compound": "O=C(O)CC[C@H](NC(=O)N[C@@H](CCCCNC(=O)[C@H](Cc1ccc2ccccc2c1)NC(=O)[C@H]1CC[C@H](CNC(=O)[C@H](CCC(=O)O)NC(=O)[C@H](Cc2c[nH]cn2)NC(=O)[C@H](CCC(=O)O)NC(=O)[C@H](Cc2c[nH]cn2)NC(=O)[C@H](CCC(=O)O)NC(=O)[C@H](Cc2c[nH]cn2)NC(=O)CN2CCN(CC(=O)O)CCN(CC(=O)O)CCN(CC(=O)O)CC2)CC1)C(=O)O)C(=O)O [PS4, EuK-NaI-ChX-(EH)3-DOTA] ({DOTA}-HEHEHE[Trx][2Nal]-EuK)", "Readout": "Internalization", "Result": "0.81 ± 0.29 %Binding / %Internalization"}
{"Compound": "O=C(O)CC[C@H](NC(=O)N[C@@H](CCCCNC(=O)[C@H](Cc1c[nH]cn1)NC(=O)[C@H](CCC(=O)O)NC(=O)[C@H](Cc1c[nH]cn1)NC(=O)[C@H](CCC(=O)O)NC(=O)[C@H](Cc1c[nH]cn1)NC(=O)[C@H](CCC(=O)O)NC(=O)[C@H](Cc1ccc2ccccc2c1)NC(=O)[C@H]1CC[C@H](CNC(=O)CN2CCN(CC(=O)O)CCN(CC(=O)O)CCN(CC(=O)O)CC2)CC1)C(=O)O)C(=O)O [PS1, EuK-(HE)3-NaI-ChX-DOTA] ({DOTA-Trx}-[2Nal]EHEHEH-EuK)", "Readout": "Internalization", "Result": "0.66 ± 0.14 %Binding / %Internalization"}

Proceeding to the next compound to report its Internalization.
[ask] Item O=C(O)CC[C@H](NC(=O)N[C@@H](CCCCNC(=O)[C@H](Cc1ccc2ccccc2c1)NC(=O)[C@H]1CC[C@H](CNC(=O)CN2CCN(CC(=O)O)CCN(CC(=O)O)CCN(CC(=O)O)CC2)CC1)C(=O)O)C(=O)O [PSMA-617, EuK-NaI-ChX-DOTA] has what recorded Internalization?
[reply] 0.50 ± 0.05 %Binding / %Internalization
